- Experiment Summary: LNP particle size by dynamic light scattering (Zetasizer Nano ZS)
- Type: physicochemical
- Conditions Used: Table 3; N/P ratio 3:1; DMPE-PEG2000
Measurement Label: <d>Z (nm)

>>> print(df.to_string())
                                   compound  measurement_label  numeric_readout
0  CCCCC/C=C\C/C=C\CCCCCCCCC(CCCCCCCC/C=C\C/C=C\CCCCC)OC(=O)CCCN(C)C [MC3, reference compound]          <d>Z (nm)               79
1  CCCCCC(CCCCC)CCOC(=O)CCCCCCCC(CCCCCCCC(=O)OCCC(CCCCC)CCCCC)NCC1CCCO1 (stereo not shown) [Compound 8]          <d>Z (nm)               76
2  CCCCCC(CCCCC)CCOC(=O)CCCCCCCCC(CCCCCCCCC(=O)OCCC(CCCCC)CCCCC)NC1CC2(COC2)C1 [Compound 14]          <d>Z (nm)               77
3  CCCCCC(CCCCC)CCOC(=O)CCCCCC(CCCCCC(=O)OCCC(CCCCC)CCCCC)NC1CC2(COC2)C1 [Compound 13]          <d>Z (nm)               66
4  CCCCCC(CCCCC)CCOC(=O)CCCCCCCC(CCCCCCCC(=O)OCCC(CCCCC)CCCCC)NCCC1CCOCC1 [Compound 7]          <d>Z (nm)               77
5  CCCCCC(CCCCC)CCOC(=O)CCCCCCCC(CCCCCCCC(=O)OCCC(CCCCC)CCCCC)NCC1COCCO1 (stereo not shown) [Compound 9]          <d>Z (nm)               81
6  CCCCCC(CCCCC)CCOC(=O)CCCCCCCC(CCCCCCCC(=O)OCCC(CCCCC)CCCCC)NCC1CCCCO1 (stereo not shown) [Compound 6]          <d>Z (nm)               77

###

- System: Female BALB/c mice
- Experiment Summary: eGFP expression in the liver at 24 hours after intravenous administration of LNP formulations to mouse (ELISA)
- Type: in vivo
- Conditions Used: Table 5, 0.3 mg/kg, LNP N/P 3:1, DMPE-PEG2000
Measurement Label: Liver eGFP protein (ng/g tissue)
Supply the numeric figure in ng/g tissue, leaving out any unit text.

## Input For the compound CCCCCCCCC(CCCCCCCC)OC(=O)CCCCCCCC(CCCCCCCC(=O)OCC(C)CCCCCCC)NCC1CCOC1 (stereo not drawn) , give its measured Liver eGFP protein (ng/g tissue) value.
## Output 4103.6

## Input For the compound CCCCCCCCC(CC)OC(=O)CCCCCCCC(CCCCCCCC(=O)OC(CCCCCCCC)CCCCCCCC)NC1CC2(COC2)C1 (stereo not drawn) , give its measured Liver eGFP protein (ng/g tissue) value.
## Output 9730.7

## Input For the compound CCCCCCCCC(C)OC(=O)CCCCCCCC(CCCCCCCC(=O)OC(CCCCCCCC)CCCCCCCC)NCC1CCOC1 (stereo not drawn) , give its measured Liver eGFP protein (ng/g tissue) value.
## Output 6133.5

## Input For the compound CCCCCCCCC(CC)OC(=O)CCCCCCCC(CCCCCCCC(=O)OC(CCCCCCCC)CCCCCCCC)NCC1COC1 (stereo not drawn) , give its measured Liver eGFP protein (ng/g tissue) value.
## Output 7390.2

## Input For the compound CCCCCCCCC(CCCCCCCC)OC(=O)CCCCCCCC(CCCCCCCC(=O)OCCC(CC)CCCCCC)NC1CC2(COC2)C1 (stereo not drawn) , give its measured Liver eGFP protein (ng/g tissue) value.
## Output 6582.0

## Input For the compound CCCCCCCCC(CCCCCCCC)OC(=O)CCCCCCCC(CCCCCCCC(=O)OCC(C)CCCCCCC)NC1CC2(COC2)C1 (stereo not drawn) , give its measured Liver eGFP protein (ng/g tissue) value.
## Output 4570.6

###

- Experiment Summary: LNP particle size by dynamic light scattering (Zetasizer Nano ZS)
- Format: physicochemical
- Conditions Used: Table 1; z-average particle diameter; N/P ratio 3:1; DMPE-PEG2000
- Experimental: A solution of eGFP mRNA (purchased from TriLink Biotechnologies) in citrate buffer was prepared by mixing mRNA dissolved in MilliQ-water, 100 mM citrate buffer (pH 3) and MilliQ-water to give a solution of 50 mM citrate. […] The first 0.2-0.35 mL and the last 0.05-0.1 mL of the LNP suspension prepared were discarded while the rest of the volume was collected as the sample fraction. […] The number-weighted particle size distributions and averages were calculated using a particle refractive index of 1.45.
Measurement Label: <d>Z (nm)

>>> print(df.to_string())
                                   compound  unit_info  numeric_readout
0  CCCCC/C=C\C/C=C\CCCCCCCCC(CCCCCCCC/C=C\C/C=C\CCCCC)OC(=O)CCCN(C)C [MC3, reference compound]         nm               86
1  CCCCCC(CCCCC)CCOC(=O)CCCCCCCC(CCCCCCCC(=O)OCCC(CCCCC)CCCCC)NCC1CCOC1 (stereo not drawn)         nm               79
2  CCCCCC(CCCCC)CCOC(=O)CCCCCCCC(CCCCCCCC(=O)OCCC(CCCCC)CCCCC)NCC1CCOCC1         nm               81
3  CCCCCC(CCCCC)CCOC(=O)CCCCCCCC(CCCCCCCC(=O)OCCC(CCCCC)CCCCC)NCC1COC1         nm               70
4  CCCCCC(CCCCC)CCOC(=O)CCCCCCCC(CCCCCCCC(=O)OCCC(CCCCC)CCCCC)NC1CC2(COC2)C1         nm               84
5  CCCCCC(CCCCC)CCOC(=O)CCCCCCCC(CCCCCCCC(=O)OCCC(CCCCC)CCCCC)NC1CCOCC1         nm               73

###

- Experiment Summary: mRNA encapsulation efficiency of LNP formulations (Quant-it Ribogreen assay with Triton-X100)
- Type: physicochemical
- Conditions Used: Table 6; N/P ratio 3:1; DMPE-PEG2000
Measurement Label: % EE (%)

In [3]: df
Out[3]:
                                    compound  numeric_readout
 0  CCCCCCCCC(CCC)OC(=O)CCCCCCCC(CCCCCCCC(=O)OC(CCCCCCCC)CCCCCCCC)NC1CC2(COC2)C1 (stereo not drawn)               97
 1  CCCCC/C=C\C/C=C\CCCCCCCCC(CCCCCCCC/C=C\C/C=C\CCCCC)OC(=O)CCCN(C)C [MC3, reference compound]               98
 2  CCCCCC(CCCCC)CCOC(=O)CCCCCCCCCC(CCCCC(=O)OCCC(CCCCC)CCCCC)NC1CC2(COC2)C1 (stereo not drawn)               94
 3  CCCCCCCCC(CCCCCCCC)OC(=O)CCCCCCCC(CCCCCCCC(=O)OC(C)CCCCC)NCC1CCOC1 (stereo not drawn)               90
 4  CCCCCCCCC(CCCCCCCC)OC(=O)CCCCCCCC(CCCCCCCC(=O)OC(CC)CCCC)NCC1CCOC1 (stereo not drawn)               89
 5  CCCCCCCCC(CCCCCCCC)OC(=O)CCCCCCCC(CCCCCCCC(=O)OCC1CC1CCCCCC)NCC1COC1 (stereo not drawn)               95
 6  CCCCCCCCC(CCCCCCCC)OC(=O)CCCCCCCC(CCCCCCCC(=O)OC(C)(C)CCCCCCCC)NC1CC2(COC2)C1 (stereo not drawn)               96
 7  CCCCCCCCCCC(C)OC(=O)CCCCCC(CCCCCCCC(=O)OC(CCCCCCCC)CCCCCCCC)NC1CC2(COC2)C1 (stereo not drawn)               96
 8  CCCCCCCCC(CCCCCCCC)OC(=O)CCCCCCCC(CCCCCCCC(=O)OCC1CC1CCCCCC)NCC1CCOC1 (stereo not drawn)               95
 9  CCCCCCCCC(CCCCCCCC)OC(=O)CCCCCCCC(CCCCCCCCCC(=O)OC(C)CCCCCC)NC1CC2(COC2)C1 (stereo not drawn)               93
10  CCCCCCCCC(CCCCCCCC)OC(=O)CCCCCCCC(CCCCCCCC(=O)OC(CC)CCCCC)NC1CC2(COC2)C1 (stereo not drawn)               93
11  CCCCCCCCCC(=O)OCCCCCCCC(CCCCCCCC(=O)OC(CCCCCCCC)CCCCCCCC)NC1CC2(COC2)C1 (stereo not drawn)               95
